Target: Cytochrome P450 2C9 (Homo sapiens)
Sequence (P11712 whole entry): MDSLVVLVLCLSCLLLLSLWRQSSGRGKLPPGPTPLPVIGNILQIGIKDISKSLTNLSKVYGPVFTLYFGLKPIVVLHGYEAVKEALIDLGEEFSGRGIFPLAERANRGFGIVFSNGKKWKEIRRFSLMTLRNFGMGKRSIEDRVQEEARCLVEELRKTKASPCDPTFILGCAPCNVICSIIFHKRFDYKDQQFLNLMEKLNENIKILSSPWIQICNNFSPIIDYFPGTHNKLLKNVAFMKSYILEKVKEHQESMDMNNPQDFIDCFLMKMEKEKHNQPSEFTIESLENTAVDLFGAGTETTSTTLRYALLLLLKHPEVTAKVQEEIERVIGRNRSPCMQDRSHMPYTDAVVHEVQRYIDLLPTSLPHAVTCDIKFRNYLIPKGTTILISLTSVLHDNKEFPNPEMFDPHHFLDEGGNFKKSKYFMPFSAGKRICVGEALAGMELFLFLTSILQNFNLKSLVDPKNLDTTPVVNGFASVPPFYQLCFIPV
Assay: Inhibition of CYP2C9 (unknown origin)
Assay type: ADME
Reported Metric: IC50 (µM)

{"Entry Smiles": "C[C@]12C=CC(=O)C=C1CC[C@@H]1[C@@H]2[C@@H](O)C[C@@]2(C)[C@H]1C[C@H]1O[C@@H](c3ccc(Cc4cccc(N)c4)cc3)O[C@]12C(=O)CO", "Reported Metric": "IC50", "Units Symbol": "µM", "Result": 18.4}

====

Experiment: Plasma clearance in CD1 mouse at 3 mg/kg, iv
Assay type: ADME, organism-based
Details: in vivo

{"Entry Smiles": "C[C@]12C=CC(=O)C=C1CC[C@@H]1[C@@H]2[C@@H](O)C[C@@]2(C)[C@H]1C[C@H]1O[C@@H](c3ccc(Cc4cccc(N)c4)cc3)O[C@]12C(=O)CO", "Units Symbol": "mL/min/kg", "clearance": 14.2}

====

Biological target: Cytochrome P450 2D6 (Homo sapiens)
Sequence (P10635 whole entry): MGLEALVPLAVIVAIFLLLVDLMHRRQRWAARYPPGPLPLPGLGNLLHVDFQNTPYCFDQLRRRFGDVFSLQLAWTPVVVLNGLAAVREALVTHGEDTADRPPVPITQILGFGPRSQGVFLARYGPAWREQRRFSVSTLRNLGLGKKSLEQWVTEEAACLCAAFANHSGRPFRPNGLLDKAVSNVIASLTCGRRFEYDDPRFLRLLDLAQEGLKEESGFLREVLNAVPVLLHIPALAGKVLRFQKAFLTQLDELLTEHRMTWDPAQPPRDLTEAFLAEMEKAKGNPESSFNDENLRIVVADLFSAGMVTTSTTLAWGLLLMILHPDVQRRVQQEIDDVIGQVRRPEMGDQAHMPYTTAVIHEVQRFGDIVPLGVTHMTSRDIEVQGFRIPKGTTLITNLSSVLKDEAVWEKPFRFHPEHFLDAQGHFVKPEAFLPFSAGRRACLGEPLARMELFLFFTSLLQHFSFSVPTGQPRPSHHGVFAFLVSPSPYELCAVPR
Reported Metric: IC50

{"Entry Smiles": "C[C@]12C=CC(=O)C=C1CC[C@@H]1[C@@H]2[C@@H](O)C[C@@]2(C)[C@H]1C[C@H]1O[C@@H](c3ccc(Cc4cccc(N)c4)cc3)O[C@]12C(=O)CO", "System Under Test": "Cytochrome P450 2D6 (Homo sapiens)", "Reported Metric": "IC50", "Result": "> 40 µM"}

====

Assay: Permeability of the compound by PAMPA assay
Format: ADME
Settings: read-out: permeability
Reported Metric: Papp (×10⁻⁶ cm/s)

{"Entry Smiles": "C[C@]12C=CC(=O)C=C1CC[C@@H]1[C@@H]2[C@@H](O)C[C@@]2(C)[C@H]1C[C@H]1O[C@@H](c3ccc(CN4CCNCC4)cc3)O[C@]12C(=O)CO", "Result": 0.23}
{"Entry Smiles": "C[C@]12C=CC(=O)C=C1[C@@H](F)C[C@H]1[C@@H]3C[C@H]4O[C@@H](c5ccc(CN6CCNCC6)cc5)O[C@@]4(C(=O)CO)[C@@]3(C)C[C@H](O)[C@@]12F", "Result": 0.22}

====

Molecular target: Glucocorticoid receptor (Homo sapiens, UniProt P04150)
Sequence (P04150 whole entry): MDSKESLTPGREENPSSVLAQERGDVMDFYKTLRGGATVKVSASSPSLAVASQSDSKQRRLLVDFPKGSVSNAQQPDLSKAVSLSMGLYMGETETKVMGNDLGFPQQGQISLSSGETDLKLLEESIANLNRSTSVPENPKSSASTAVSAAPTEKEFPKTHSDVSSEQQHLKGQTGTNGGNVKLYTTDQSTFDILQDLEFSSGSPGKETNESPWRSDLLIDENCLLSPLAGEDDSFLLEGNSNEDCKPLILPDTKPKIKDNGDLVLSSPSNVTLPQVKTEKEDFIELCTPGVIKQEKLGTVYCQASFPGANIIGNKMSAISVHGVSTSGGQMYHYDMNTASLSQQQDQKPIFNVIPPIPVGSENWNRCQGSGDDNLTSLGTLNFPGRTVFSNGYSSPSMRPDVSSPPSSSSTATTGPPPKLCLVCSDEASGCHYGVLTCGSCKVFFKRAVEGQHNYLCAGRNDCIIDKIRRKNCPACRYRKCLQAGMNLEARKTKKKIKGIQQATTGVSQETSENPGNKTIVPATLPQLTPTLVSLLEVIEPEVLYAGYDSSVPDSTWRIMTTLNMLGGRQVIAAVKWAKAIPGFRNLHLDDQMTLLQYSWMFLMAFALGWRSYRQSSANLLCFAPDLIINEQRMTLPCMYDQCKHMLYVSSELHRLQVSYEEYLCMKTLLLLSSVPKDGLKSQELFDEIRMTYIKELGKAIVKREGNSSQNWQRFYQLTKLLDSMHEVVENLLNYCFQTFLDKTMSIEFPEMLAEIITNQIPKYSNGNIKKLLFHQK
Reported Metric: IC50 (nM)

{"Compound": "C[C@]12C=CC(=O)C=C1CC[C@@H]1[C@@H]2[C@@H](O)C[C@@]2(C)[C@H]1C[C@H]1O[C@@H](C3CCCCC3)O[C@]12C(=O)CO [DESISOBUTYRYLCICLESONIDE]", "Result": 2}

====

Assay: AUC (0 to infinity) in Sprague-Dawley rat at 3 mg/kg, po
Type: ADME, organism-based
Set-up: dose 3 mg/kg, route po
Settings: in vivo
Reported Metric: AUC(0-inf) (µg·h/mL)

{"Entry Smiles": "C[C@]12C=CC(=O)C=C1CC[C@@H]1[C@@H]2[C@@H](O)C[C@@]2(C)[C@H]1C[C@H]1O[C@@H](c3ccc(Cc4cccc(N)c4)cc3)O[C@]12C(=O)CO", "Result": 0.22}

====

Assay: Oral bioavailability in Sprague-Dawley rat at 3 mg/kg
Assay type: ADME, organism-based
Conditions: in vivo

{"Entry Smiles": "C[C@]12C=CC(=O)C=C1CC[C@@H]1[C@@H]2[C@@H](O)C[C@@]2(C)[C@H]1C[C@H]1O[C@@H](c3ccc(Cc4cccc(N)c4)cc3)O[C@]12C(=O)CO", "bioavailability / %": 16.8}

====

Assay: Half life in CD1 mouse at 3 mg/kg, iv
Type: ADME, organism-based
Details: in vivo
Reported Metric: half-life (h)

{"Entry Smiles": "C[C@]12C=CC(=O)C=C1CC[C@@H]1[C@@H]2[C@@H](O)C[C@@]2(C)[C@H]1C[C@H]1O[C@@H](c3ccc(Cc4cccc(N)c4)cc3)O[C@]12C(=O)CO", "Result": 3.82}

====

Assay: Plasma clearance in Sprague-Dawley rat at 0.5 mg/kg, iv
Assay type: ADME, organism-based
Details: in vivo
Reported Metric: clearance (mL/min/kg)

{"Entry Smiles": "C[C@]12C=CC(=O)C=C1CC[C@@H]1[C@@H]2[C@@H](O)C[C@@]2(C)[C@H]1C[C@H]1O[C@@H](c3ccc(Cc4cccc(N)c4)cc3)O[C@]12C(=O)CO", "Reported Metric": "clearance", "Result": 37.8}

====

Assay: Half life in Sprague-Dawley rat at 3 mg/kg, po
Assay type: ADME, organism-based
Conditions: in vivo

{"Entry Smiles": "C[C@]12C=CC(=O)C=C1CC[C@@H]1[C@@H]2[C@@H](O)C[C@@]2(C)[C@H]1C[C@H]1O[C@@H](c3ccc(Cc4cccc(N)c4)cc3)O[C@]12C(=O)CO", "half-life": "2.86 h"}

====

Biological target: Cytochrome P450 3A4 (Homo sapiens)
Sequence (P08684 whole entry): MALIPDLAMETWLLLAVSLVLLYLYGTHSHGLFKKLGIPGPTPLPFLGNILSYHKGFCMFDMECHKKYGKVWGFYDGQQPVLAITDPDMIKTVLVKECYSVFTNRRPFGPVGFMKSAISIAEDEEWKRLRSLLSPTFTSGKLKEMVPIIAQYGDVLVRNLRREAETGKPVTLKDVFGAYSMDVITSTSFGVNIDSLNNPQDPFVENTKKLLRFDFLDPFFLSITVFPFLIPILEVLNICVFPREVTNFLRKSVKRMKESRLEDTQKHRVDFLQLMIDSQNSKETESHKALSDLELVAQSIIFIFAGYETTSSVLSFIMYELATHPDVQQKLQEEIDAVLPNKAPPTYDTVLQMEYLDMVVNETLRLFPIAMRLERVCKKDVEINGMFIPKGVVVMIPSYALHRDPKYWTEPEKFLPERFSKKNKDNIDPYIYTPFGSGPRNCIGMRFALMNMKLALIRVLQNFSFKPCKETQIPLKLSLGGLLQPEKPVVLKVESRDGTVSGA
pIC50: −log10 of the molar value.

{"Entry Smiles": "C[C@]12C=CC(=O)C=C1CC[C@@H]1[C@@H]2[C@@H](O)C[C@@]2(C)[C@H]1C[C@H]1O[C@@H](c3ccc(Cc4cccc(N)c4)cc3)O[C@]12C(=O)CO", "pIC50": "> 7.70"}

====

Test: Tmax in CD1 mouse at 10 mg/kg, po
Assay type: ADME, organism-based
Settings: in vivo

{"Entry Smiles": "C[C@]12C=CC(=O)C=C1CC[C@@H]1[C@@H]2[C@@H](O)C[C@@]2(C)[C@H]1C[C@H]1O[C@@H](c3ccc(Cc4cccc(N)c4)cc3)O[C@]12C(=O)CO", "Tmax / h": 1.42}
